# target.of.assay: Canine_OSMR_hlgG1_Fc (canine)
# Sequence (chain, as listed by the source limits assumed, form in doubt): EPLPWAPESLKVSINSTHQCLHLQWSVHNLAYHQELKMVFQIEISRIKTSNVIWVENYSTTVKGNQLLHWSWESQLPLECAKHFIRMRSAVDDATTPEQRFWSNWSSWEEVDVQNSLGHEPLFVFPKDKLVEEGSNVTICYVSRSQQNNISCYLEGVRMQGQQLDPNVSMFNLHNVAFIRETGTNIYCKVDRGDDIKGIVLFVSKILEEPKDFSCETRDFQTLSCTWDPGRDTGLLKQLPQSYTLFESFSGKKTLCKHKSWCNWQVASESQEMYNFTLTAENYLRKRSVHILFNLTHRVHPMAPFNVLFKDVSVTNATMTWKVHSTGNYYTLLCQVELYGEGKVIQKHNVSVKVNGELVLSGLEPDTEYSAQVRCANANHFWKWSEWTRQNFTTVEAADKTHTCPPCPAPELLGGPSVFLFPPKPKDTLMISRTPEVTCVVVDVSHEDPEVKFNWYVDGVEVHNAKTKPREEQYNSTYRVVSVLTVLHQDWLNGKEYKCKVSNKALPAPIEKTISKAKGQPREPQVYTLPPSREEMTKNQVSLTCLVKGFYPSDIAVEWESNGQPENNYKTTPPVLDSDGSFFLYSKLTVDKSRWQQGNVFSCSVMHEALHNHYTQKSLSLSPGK
# assay: SPR Biacore, OSMR on chip
pKd: −log10 of the molar value.
Entries and their measured pKd follow.

binder: Mu_14C04 (antibody, V domains shown) VH: EVQLQESGAELVKPGASVKISCKASGYAFSNYWMNWMKQRPGKGLEWIGQIYPGHVNTNYNGNFKDKATLTADKSSSTAYMQLSSLTSEDSAVYFCARSADNSGFVLFAYWGQGTLVTVS VL: DIVLTQSPASLAVSLGQRATISCRASKSVSTSGYSYLHWYQQKPGQPPKLLIFLASNLESGVPARFSGSGSGTDFTLNIHPVEEEDAATYYCQHSRELPLTFGAGTKLELK
pKd: 7.85

binder: mouse: canine 09E09 chimera (antibody, V domains shown) VH: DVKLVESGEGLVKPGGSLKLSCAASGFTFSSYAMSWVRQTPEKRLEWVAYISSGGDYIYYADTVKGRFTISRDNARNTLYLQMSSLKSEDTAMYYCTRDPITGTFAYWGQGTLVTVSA VL: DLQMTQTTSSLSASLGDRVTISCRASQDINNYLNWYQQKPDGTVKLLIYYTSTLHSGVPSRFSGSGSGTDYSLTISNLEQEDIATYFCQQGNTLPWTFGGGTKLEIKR
pKd: 8.28

binder: mouse: canine 02D09 chimera (antibody, V domains shown) VH: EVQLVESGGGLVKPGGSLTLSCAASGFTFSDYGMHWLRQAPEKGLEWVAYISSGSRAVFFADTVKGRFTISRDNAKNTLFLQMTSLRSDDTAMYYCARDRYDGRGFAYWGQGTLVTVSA VL: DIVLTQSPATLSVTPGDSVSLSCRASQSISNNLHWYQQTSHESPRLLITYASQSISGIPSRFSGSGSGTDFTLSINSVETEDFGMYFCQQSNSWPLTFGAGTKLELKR
pKd: 7.89

binder: Mu_19F07 (antibody, V domains shown) VH: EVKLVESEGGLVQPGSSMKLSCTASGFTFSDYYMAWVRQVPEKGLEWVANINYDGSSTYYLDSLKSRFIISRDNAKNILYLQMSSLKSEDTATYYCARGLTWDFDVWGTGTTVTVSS VL: DIVMTQSHKFMSPSVGDRVSITCKASQDVDTAVAWYQQKPGQSPKLLIYLASTRHTGVPDRFTGSGSGTDFTLTISNVQSEDLADYFCQQYSRFPLTFGAGTKLELK
pKd: 9.02

binder: Mu_09E09 (antibody, V domains shown) VH: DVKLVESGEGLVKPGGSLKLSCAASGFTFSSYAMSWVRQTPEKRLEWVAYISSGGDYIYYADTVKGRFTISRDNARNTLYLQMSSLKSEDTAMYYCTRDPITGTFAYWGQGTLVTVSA VL: DLQMTQTTSSLSASLGDRVTISCRASQDINNYLNWYQQKPDGTVKLLIYYTSTLHSGVPSRFSGSGSGTDYSLTISNLEQEDIATYFCQQGNTLPWTFGGGTKLEIK
pKd: 8.10
